target: 5HT-transporter (Homo sapiens); construct: Human platelet membranes (Oceanix Biosciences Corporation, Hanover, Md., USA) were thawed; tissue Oceanix Biosciences Corporation, Hanover, Md., USA; host or cells: human platelet membranes; test: Binding experiment for the 5HT-transporter ([3H]paroxetine, human platelet membranes); conditions: [3H]paroxetine 0.5 nM, 60 min at 25° C.
Endpoint name: h-5HTT pIC50

[Q] Can you look up the measured h-5HTT pIC50 of CN(Cc1ccccc1)Cc1ccc(-n2ccnc(NC3CCN(Cc4ccc5ccccc5c4)CC3)c2=O)cc1 for me?
[A] 8.0

[Q] Can you look up the measured h-5HTT pIC50 of O=c1c(NC2CCN(Cc3ccc4ccccc4c3)CC2)nccn1-c1ccc(CN2CCC(F)CC2)cc1 for me?
[A] 8.4

[Q] Can you look up the measured h-5HTT pIC50 of O=C(NCc1ccc(-n2ccnc(NC3CCN(Cc4ccc5ccccc5c4)CC3)c2=O)cc1)NCC1CCCCC1 for me?
[A] 7.2

[Q] Can you look up the measured h-5HTT pIC50 of CN1CCN(Cc2ccc(-n3ccnc(NC4CCN(Cc5ccc6ccccc6c5)CC4)c3=O)cc2)CC1 for me?
[A] 8.3

[Q] Can you look up the measured h-5HTT pIC50 of O=C(NCc1ccc(-n2ccnc(NC3CCN(Cc4ccc5ccccc5c4)CC3)c2=O)cc1)Nc1ccccc1 for me?
[A] 8.1

[Q] Can you look up the measured h-5HTT pIC50 of O=C(NCCCc1ccccc1)NCc1ccc(-n2ccnc(NC3CCN(Cc4ccc5ccccc5c4)CC3)c2=O)cc1 for me?
[A] 7.8

[Q] Can you look up the measured h-5HTT pIC50 of O=C(NCc1ccc(-n2ccnc(NC3CCN(Cc4ccc5ccccc5c4)CC3)c2=O)cc1)C1CCCO1 (racemic) for me?
[A] 7.7

[Q] Can you look up the measured h-5HTT pIC50 of CC(=O)NCCCC(=O)NCc1ccc(-n2ccnc(NC3CCN(Cc4ccc5ccccc5c4)CC3)c2=O)cc1 for me?
[A] 7.5

[Q] Can you look up the measured h-5HTT pIC50 of O=C(CC1CCCC1)NCc1ccc(-n2ccnc(NC3CCN(Cc4ccc5ccccc5c4)CC3)c2=O)cc1 for me?
[A] 8.1

[Q] Can you look up the measured h-5HTT pIC50 of O=C(O)C(F)(F)F.O=C1c2ccccc2C(=O)N1CCCn1ccnc(NCCN2CCN(Cc3ccc4ccccc4c3)CC2)c1=O for me?
[A] 7.3

[Q] Can you look up the measured h-5HTT pIC50 of Cl.O=C(CCN1CCC(F)CC1)NCc1ccc(-n2ccnc(NC3CCN(Cc4ccc5ccccc5c4)CC3)c2=O)cc1F for me?
[A] 8.0

[Q] Can you look up the measured h-5HTT pIC50 of C=CCCC(=O)NCc1ccc(-n2ccnc(NC3CCN(Cc4ccc5ccccc5c4)CC3)c2=O)cc1 for me?
[A] 8.1

[Q] Can you look up the measured h-5HTT pIC50 of O=C(NCc1ccc(-n2ccnc(NC3CCN(Cc4ccc5ccccc5c4)CC3)c2=O)cc1)Nc1cc(Cl)ccc1Cl for me?
[A] 6.8

[Q] Can you look up the measured h-5HTT pIC50 of O=c1c(NC2CCN(Cc3ccc4ccccc4c3)CC2)nccn1-c1ccc(CN2CCC(Oc3cccnc3)CC2)cc1 for me?
[A] 8.6

[Q] Can you look up the measured h-5HTT pIC50 of CN(CCF)Cc1ccc(-n2ccnc(NC3CCN(Cc4ccc5ccccc5c4)CC3)c2=O)cc1 for me?
[A] 7.8

[Q] Can you look up the measured h-5HTT pIC50 of COC(=O)CCNC(=O)NCc1ccc(-n2ccnc(NC3CCN(Cc4ccc5ccccc5c4)CC3)c2=O)cc1 for me?
[A] 7.6

[Q] Can you look up the measured h-5HTT pIC50 of O=C(NCc1ccc(-n2ccnc(NC3CCN(Cc4ccc5ccccc5c4)CC3)c2=O)cc1)c1ccc(F)cc1 for me?
[A] 8.2

[Q] Can you look up the measured h-5HTT pIC50 of Cc1ccc(CNCc2ccc(-n3ccnc(NC4CCN(Cc5ccc6ccccc6c5)CC4)c3=O)cc2)o1.Cl.Cl for me?
[A] 8.3

* * *

target: 5HT-transporter (Homo sapiens, UniProt P31645); construct: Human platelet membranes (Oceanix Biosciences Corporation, Hanover, Md., USA) were thawed; tissue Oceanix Biosciences Corporation, Hanover, Md., USA; host or cells: human platelet membranes; test: Binding experiment for the 5HT-transporter ([3H]paroxetine, human platelet membranes); conditions: [3H]paroxetine 0.5 nM, 60 min at 25° C., read-out: h-5HTT pIC50 (converted)
Sequence (P31645 whole entry): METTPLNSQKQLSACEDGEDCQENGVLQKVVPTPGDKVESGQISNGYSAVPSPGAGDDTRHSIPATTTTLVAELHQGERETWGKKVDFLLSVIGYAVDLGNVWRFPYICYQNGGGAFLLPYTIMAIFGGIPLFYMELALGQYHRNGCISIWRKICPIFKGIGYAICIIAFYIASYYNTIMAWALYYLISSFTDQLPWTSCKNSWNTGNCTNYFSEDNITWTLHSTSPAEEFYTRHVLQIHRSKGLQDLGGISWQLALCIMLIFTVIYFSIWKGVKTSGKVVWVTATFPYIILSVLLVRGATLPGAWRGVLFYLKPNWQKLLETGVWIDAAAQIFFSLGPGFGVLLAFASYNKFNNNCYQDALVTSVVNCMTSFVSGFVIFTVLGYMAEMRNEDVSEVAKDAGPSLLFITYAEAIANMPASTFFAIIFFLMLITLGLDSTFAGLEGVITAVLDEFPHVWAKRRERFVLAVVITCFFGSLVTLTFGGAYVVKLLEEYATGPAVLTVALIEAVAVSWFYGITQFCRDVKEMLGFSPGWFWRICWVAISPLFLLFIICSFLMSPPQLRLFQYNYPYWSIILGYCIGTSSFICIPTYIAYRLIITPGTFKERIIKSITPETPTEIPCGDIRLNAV
Endpoint name: IC50 (nM)

Solved entries:
[Q] Can you look up the measured IC50 of CN(Cc1ccccc1)C(=O)Cn1ccnc(NC2CCN(Cc3ccc4ccccc4c3)CC2)c1=O [1-69] for me?
[A] 50.1

[Q] Can you look up the measured IC50 of NCc1ccc(Cn2ccnc(N3CCN(Cc4cccc5ccccc45)CC3)c2=O)cc1 [9-23] for me?
[A] 1260

[Q] Can you look up the measured IC50 of O=c1c(NC2CCN(Cc3ccc4ccccc4c3)CC2)nccn1CCOc1ccccc1 [3-09] for me?
[A] 12.6

[Q] Can you look up the measured IC50 of NCCCn1ccnc(NC2CCN(Cc3ccc4ccccc4c3)CC2)c1=O [1-03] for me?
[A] 200

[Q] Can you look up the measured IC50 of O=c1c(NC2CCN(Cc3ccc4ccccc4c3)CC2)nccn1CCCNCc1ccccc1 [1-67] for me?
[A] 158

[P] O=C(Cc1ccsc1)NCc1ccc(-n2ccnc(NC3CCN(Cc4ccc5ccccc5c4)CC3)c2=O)cc1 [1-95]
[Q] CCOC(=O)CCCn1ccnc(NC2CCN(Cc3ccc4ccccc4c3)CC2)c1=O [3-06]
[R] COc1ccc(Cn2c(-c3ccc(CO)cc3)c(Cl)nc(NC3CCN(Cc4ccc5ccccc5c4)CC3)c2=O)cc1 [8-03]
[S] O=Cc1ccc(-n2ccnc(NC3CCN(Cc4ccc5ccccc5c4)CC3)c2=O)cc1F [5-11]
[Q] // smallest IC50 at index 0, largest at the end I'd appreciate it if you listed the labels in the requested order.
[A] P, S, Q, R
(P: 6.31 nM, S: 39.8 nM, Q: 79.4 nM, R: 126 nM)

* * *

molecular target: 5HT-transporter (Homo sapiens, UniProt P31645); construct: Human platelet membranes (Oceanix Biosciences Corporation, Hanover, Md., USA) were thawed; tissue Oceanix Biosciences Corporation, Hanover, Md., USA; host or cells: human platelet membranes; assay: Binding experiment for the 5HT-transporter ([3H]paroxetine, human platelet membranes); details: [3H]paroxetine 0.5 nM, 60 min at 25° C., read-out: h-5HTT pIC50 (converted)
Endpoint name: IC50 (nM)

[Q] Can you look up the measured IC50 of Cc1cc(CNC(=O)c2ccc(-n3ccnc(NC4CCN(Cc5ccc6ccccc6c5)CC4)c3=O)cc2)no1 for me?
[A] 25.1

[Q] Can you look up the measured IC50 of O=C(Cn1ccnc(NC2CCN(Cc3ccc4ccccc4c3)CC2)c1=O)NCc1ccco1 for me?
[A] 631

[Q] Can you look up the measured IC50 of O=C(Cn1ccnc(NC2CCN(Cc3ccc4ccccc4c3)CC2)c1=O)N1CCC(C(F)(F)F)CC1 for me?
[A] 1260

[1] Cc1cc(CNCc2ccc(-n3ccnc(NC4CCN(Cc5ccc6ccccc6c5)CC4)c3=O)cc2F)no1
[2] O=C(Cn1ccnc(NC2CCN(Cc3ccc4ccccc4c3)CC2)c1=O)NCc1ccccc1
[Q] Between 1 and 2 , whose recorded IC50 is greater? // respond with label for picked entry
[A] 2
(2: 158 nM, 1: 12.6 nM)

* * *

target: 5HT-transporter (Homo sapiens); construct: Human platelet membranes (Oceanix Biosciences Corporation, Hanover, Md., USA) were thawed; tissue Oceanix Biosciences Corporation, Hanover, Md., USA; host or cells: human platelet membranes; assay: Binding experiment for the 5HT-transporter ([3H]paroxetine, human platelet membranes); settings: [3H]paroxetine 0.5 nM, 60 min at 25° C., read-out: h-5HTT pIC50 (converted)
Endpoint name: IC50 (nM)

[Q] Hi! What's the reported IC50 for O=C1c2ccccc2C(=O)N1CCCn1ccnc(NC2CCN(Cc3cnc4ccccc4c3)CC2)c1=O [9-27] on 5HT-transporter (Homo sapiens)?
[A] 631

[A] COc1ccc(Cn2c(-c3cccc(CN4CCCCC4)c3)c(Cl)nc(NC3CCN(Cc4ccc5ccccc5c4)CC3)c2=O)cc1 [8-09]
[B] CCCNC(=O)c1ccc(-n2ccnc(NC3CCN(Cc4ccc5ccccc5c4)CC3)c2=O)cc1 [1-09]
[C] O=C1CN(Cc2ccc(-n3ccnc(NC4CCN(Cc5ccc6ccccc6c5)CC4)c3=O)cc2)CCN1 [2-04]
[D] O=c1c(NC2CCN(Cc3ccc4ccccc4c3)CC2)nccn1-c1ccc2c(c1)OCCO2 [4-05]
[E] O=C(Nc1cccc(-n2ccnc(NC3CCN(Cc4ccc5ccccc5c4)CC3)c2=O)c1)c1ccc(F)cc1 [1-75]
[Q] // smallest IC50 at index 0, largest at the end I'd appreciate it if you listed the labels in the requested order.
[A] E, D, B, C, A
(E: 3.98 nM, D: 10 nM, B: 20 nM, C: 31.6 nM, A: 50.1 nM)

[A] CCCNCc1ccc(-n2ccnc(NC3CCN(Cc4ccc5ccccc5c4)CC3)c2=O)cc1 [1-06]
[B] O=c1c(NC2CCN(Cc3ccc4ccccc4c3)CC2)nccn1-c1ccccn1 [6-16]
[Q] Look at A and B . Which one has the lower recorded IC50 number? // respond with label for picked entry
[A] A
(A: 20 nM, B: 158 nM)
